- measurementTarget: T1, Chryseobacterium sp-62563 deamidase polypeptide (second polypeptide, deamidase domain), wildtype (Chryseobacterium sp-62563)
- T1 sequence: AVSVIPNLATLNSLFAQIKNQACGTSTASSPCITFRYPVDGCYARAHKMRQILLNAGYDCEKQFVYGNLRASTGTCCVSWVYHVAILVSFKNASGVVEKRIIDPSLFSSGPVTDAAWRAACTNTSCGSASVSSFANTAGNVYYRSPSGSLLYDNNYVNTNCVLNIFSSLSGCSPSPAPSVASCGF
- assayRemarks: cell-based or functional assay
metric: Relative activity of maturated deamidase (% initial rate)

(I) Chryseobacterium sp-62563 propeptide K101D (protein) NQDPNLVAKESNETAMKDFGKTVPVGIEKEDGKFKISFMVTAQPYEIKDSKENAAYISMIKTAVENETPIHVFLKANTNEIAKVDKATDDDIRYFKSVFTDEVKEENRK
(II) Chryseobacterium sp-62563 propeptide Y56P (protein) NQDPNLVAKESNETAMKDFGKTVPVGIEKEDGKFKISFMVTAQPYEIKDSKENAAPISMIKTAVENETPIHVFLKANTNEIAKVDKATDDDIRYFKSVFTKEVKEENRK
Problem: Task for the reader: decide whether I or II has the larger Relative activity of maturated deamidase (% initial rate). Record your answer as the label of the chosen record.
Result: I
